- Tested on: MM1S cells
- run.description: Cell growth inhibition, CellTiter-Glo, 72 h
- Format: cell-based
- measurement.conditions: Homo sapiens, MM1.S, 72 h culture, mean of N=2
Here the recorded pIC50 is given for each entry.
Note on pIC50: it is the negative log10 of concentration, concentration in mol/L.

1. C=CS(=O)(=O)N[C@H]1CC[C@@H](c2cc3c(c(N4CCCc5cc(-c6cnn(C)c6)c(C(F)F)cc54)c2)CN(C(=O)NC)CC3)CC1 [Compound 1366] :: 7.62
2. CC(=O)N1Cc2cc(C3CCN(CC4CCN(CCOc5cccc6c5CN(C5CCC(=O)NC5=O)C6=O)CC4)CC3)cc(N3CCCc4cc(-c5cnn(C)c5)c(C(F)F)cc43)c2C1 (centres unmarked) [Compound 2054] :: 9.48
3. CC(=O)N1Cc2cc(C3CCN(CCN4CCC(CNc5ccc6c(c5)CN(C5CCC(=O)NC5=O)C6=O)CC4)CC3)cc(N3CCCc4cc(-c5cnn(C)c5)c(C(F)F)cc43)c2C1 (centres unmarked) [Compound 2063] :: 9.55

query: Quick check: pIC50 of C=CS(=O)(=O)N[C@H]1CC[C@@H](c2cc3c(c(N4CCCc5cc(-c6cnn(C)c6)c(C(F)F)cc54)c2)CN(C(C)=O)C3)CC1 [Compound 1345] ?
result: 7.82

query: If you can, please state the reported pIC50 value of CC(=O)N1Cc2cc(C3CCN(CC4CCN(c5ccc6c(c5)C(=O)N(C5CCC(=O)NC5=O)C6=O)CC4)CC3)cc(N3CCCc4cc(-c5cnn(C)c5)c(C(F)F)cc43)c2C1 (centres unmarked) [Compound 2085] .
result: 8.70
